target: FKBP (Homo sapiens)
Sequence (P62942 whole entry): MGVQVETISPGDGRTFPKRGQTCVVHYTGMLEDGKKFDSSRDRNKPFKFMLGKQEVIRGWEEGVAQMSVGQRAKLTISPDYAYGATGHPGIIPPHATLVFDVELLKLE
experimental protocol: FKBP competitive binding assay based on fluorescence polarization (FP)
conditions: competitive FP binding, methods of Example 2.5; read-out: FKBP IC50
Would you kindly list pIC50 for each of these molecules?
One number for each entry, as −log10 of the molar value.

Worked cases, pIC50 given:
COC1CC(CC(C)C2CC(=O)C(C)C=C(C)C(O)C(OC)C(=O)C(C)CC(C)C=CC=CC=C(C)C(c3ccc(C)s3)CC3CCC(C)C(O)(O3)C(=O)C(=O)N3CCCCC3C(=O)O2)CCC1O (stereo not drawn) [28-epi-7R-methylthiophene] :: 6.92
CO[C@@H]1C[C@H](C[C@@H](C)[C@@H]2CC(=O)[C@H](C)/C=C(\C)[C@H](O)[C@@H](OC)C(=O)[C@H](C)C[C@H](C)/C=C/C=C/C=C(\C)[C@@H](OC(C)C)C[C@@H]3CC[C@@H](C)[C@@](O)(O3)C(=O)C(=O)N3CCCC[C@H]3C(=O)O2)CC[C@H]1O [28-epi-7S-isopropyloxy] :: 7.31

// for each molecule in input: emit pIC50
1. COC1CC(CC(C)C2CC(=O)C(C)C=C(C)C(O)C(OC)C(=O)C(C)CC(C)C=CC=CC=C(C)C(N(C)C(=O)OCC(C)C)CC3CCC(C)C(O)(O3)C(=O)C(=O)N3CCCCC3C(=O)O2)CCC1O (single isomer, unassigned) [28-epi-7S-N-Me-isobutylcarbamate]
2. COC1CC(CC(C)C2CC(=O)C(C)C=C(C)C(O)C(OC)C(=O)C(C)CC(C)C=CC=CC=C(C)C(NS(=O)(=O)N(C)C)CC3CCC(C)C(O)(O3)C(=O)C(=O)N3CCCCC3C(=O)O2)CCC1O (stereo not drawn) [28-epi-7S-dimethylsulfamide]

Outgoing:
1. 7.72
2. 7.89

* * *

Would you kindly list pEC50 for each of these compounds?
target: transcriptional switch components containing FKBP and 2098L mutant FRB domains (Homo sapiens, UniProt P42345+P62942)
Construct: transcriptional switchcomponents containing FKBP and 2098L mutant FRB domains, respectively; fused on or other part: The two switch components are separate chimeric proteins; Neither is given for this cell line
experimental protocol: transcription assay in engineered HD1080 cells expressing SEAP (txn 2098L)
Type: cell-based
conditions: cellular transcription assay, methods of Example 2.5; read-out: TXN 2098L EC50
Give bare numbers, as −log10 of the molar value.

// for each compound in input: emit pEC50
1. CO[C@@H]1C[C@H](C[C@@H](C)[C@@H]2CC(=O)[C@H](C)/C=C(\C)[C@H](O)[C@@H](OC)C(=O)[C@H](C)C[C@H](C)/C=C/C=C/C=C(\C)[C@@H](NS(C)(=O)=O)C[C@@H]3CC[C@@H](C)[C@@](O)(O3)C(=O)C(=O)N3CCCC[C@H]3C(=O)O2)CC[C@H]1O [28-epi-7S-methanesulfonamide]
2. COc1ccc([C@H]2C[C@@H]3CC[C@@H](C)[C@@](O)(O3)C(=O)C(=O)N3CCCC[C@H]3C(=O)O[C@H]([C@H](C)C[C@@H]3CC[C@@H](O)[C@H](OC)C3)CC(=O)[C@H](C)/C=C(\C)[C@H](O)[C@@H](OC)C(=O)[C@H](C)C[C@H](C)/C=C/C=C/C=C/2C)c(OC)c1 [28-epi-7S-dimethoxyphenyl]
3. COC1CC(CC(C)C2CC(=O)C(C)C=C(C)C(O)C(OC)C(=O)C(C)CC(C)C=CC=CC=C(C)C(NS(=O)(=O)N(C)C)CC3CCC(C)C(O)(O3)C(=O)C(=O)N3CCCCC3C(=O)O2)CCC1O (stereo not drawn) [28-epi-7R-dimethylsulfamide]

Outgoing:
1. 7.62
2. 7.30
3. 7.70
